- measured.on: recombinant soluble homotrimeric HA of A/Wisconsin/67/05 (H3N2) (Influenza A virus A/Wisconsin/67/2005 (H3N2))
- assay.summary: HA microarray, BCC supernatant
- measurement.context: remark: other sources report otherwise
Group membership follows Trimeric HA Binding RLU per the scheme class 1 (below 8000 RLU), class 2 (8000 RLU to below 20000 RLU), class 3 (20000 RLU or more)

Solved cases below.
TCN-529 (5297_H01) (antibody, V domains shown) VH: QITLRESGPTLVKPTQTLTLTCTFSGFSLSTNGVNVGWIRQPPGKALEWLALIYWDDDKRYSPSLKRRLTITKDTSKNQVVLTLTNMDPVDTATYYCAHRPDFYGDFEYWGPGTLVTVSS VL: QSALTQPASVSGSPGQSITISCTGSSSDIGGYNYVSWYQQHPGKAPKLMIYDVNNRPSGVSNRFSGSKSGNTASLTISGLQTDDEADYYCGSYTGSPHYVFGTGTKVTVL :: class 3
TCN-532 (5262_H18) (antibody, V domains shown) VH: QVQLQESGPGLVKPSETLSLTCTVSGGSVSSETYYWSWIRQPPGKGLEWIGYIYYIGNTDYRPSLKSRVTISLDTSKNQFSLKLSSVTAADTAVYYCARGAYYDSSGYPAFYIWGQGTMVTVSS VL: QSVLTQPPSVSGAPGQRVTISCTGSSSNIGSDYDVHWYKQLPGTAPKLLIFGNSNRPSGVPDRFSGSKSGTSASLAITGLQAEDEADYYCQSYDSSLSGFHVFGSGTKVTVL :: class 2

Which category does the recorded Trimeric HA Binding RLU put TCN-537 (3194_D21) (antibody, V domains shown) VH: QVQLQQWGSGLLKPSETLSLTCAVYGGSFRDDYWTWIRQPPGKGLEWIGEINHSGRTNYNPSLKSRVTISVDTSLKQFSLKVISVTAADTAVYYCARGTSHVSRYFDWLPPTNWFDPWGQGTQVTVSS VL: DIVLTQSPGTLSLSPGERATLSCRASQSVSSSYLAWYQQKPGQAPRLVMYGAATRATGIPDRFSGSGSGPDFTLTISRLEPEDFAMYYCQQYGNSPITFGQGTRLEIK in?
class 1

For this binder, which bin applies? TCN-535 (5246_P19) (antibody, V domains shown) VH: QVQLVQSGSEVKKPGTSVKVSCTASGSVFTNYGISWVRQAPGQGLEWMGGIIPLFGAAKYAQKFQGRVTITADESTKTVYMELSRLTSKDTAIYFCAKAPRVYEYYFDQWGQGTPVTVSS VL: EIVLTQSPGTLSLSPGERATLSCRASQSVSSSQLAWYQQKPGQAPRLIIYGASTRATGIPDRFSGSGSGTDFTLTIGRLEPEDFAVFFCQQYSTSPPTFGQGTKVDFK
class 3

Determine which band this binder sits in: TCN-522 (3212_I12) (antibody, V domains shown) VH: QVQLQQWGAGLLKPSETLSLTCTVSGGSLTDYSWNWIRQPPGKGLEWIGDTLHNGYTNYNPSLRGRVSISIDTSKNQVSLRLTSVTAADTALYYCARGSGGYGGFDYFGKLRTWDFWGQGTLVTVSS VL: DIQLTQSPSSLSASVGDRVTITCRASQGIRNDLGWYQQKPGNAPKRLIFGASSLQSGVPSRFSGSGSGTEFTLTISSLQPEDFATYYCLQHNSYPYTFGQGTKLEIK
class 1

Would you mind sorting TCN-551 (5243_D01) (antibody, V domains shown) VH: EVQLVQSGSEVKKPGESLKISCKGSGYSFSNYWIGWVRHMPGKGLEWMGIIYPGDSDTRYSPSFQGQVTMSADKSSSTVYLQWSSLKASDTAIYYCARRGGHSFGYGSGGDTHSEFDSWGQGTLVTVSS VL: QSVLTQSPSVSAAPGQKVTISCSGSDSNIGDYFVCWYQHLPGKPPQLLIYENNKRPSGIPDRFSGSKSGTSATLGITGIQTGDEADYYCATWDGSLSAWVFGGGTKLTVL into the appropriate category?
class 1

Any idea which band TCN-547 (5092_F11) (antibody, V domains shown) VH: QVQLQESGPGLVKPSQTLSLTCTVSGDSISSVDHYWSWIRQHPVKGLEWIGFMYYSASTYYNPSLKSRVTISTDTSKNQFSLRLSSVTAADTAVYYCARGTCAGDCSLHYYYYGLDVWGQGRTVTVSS VL: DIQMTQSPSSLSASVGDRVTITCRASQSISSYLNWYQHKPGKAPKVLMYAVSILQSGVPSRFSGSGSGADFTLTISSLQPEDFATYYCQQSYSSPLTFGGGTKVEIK is in?
class 2

Where would TCN-533 (5256_A17) (antibody, V domains shown) VH: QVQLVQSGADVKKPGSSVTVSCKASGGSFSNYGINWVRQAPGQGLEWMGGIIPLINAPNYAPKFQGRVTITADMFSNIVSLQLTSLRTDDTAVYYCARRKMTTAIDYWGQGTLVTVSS VL: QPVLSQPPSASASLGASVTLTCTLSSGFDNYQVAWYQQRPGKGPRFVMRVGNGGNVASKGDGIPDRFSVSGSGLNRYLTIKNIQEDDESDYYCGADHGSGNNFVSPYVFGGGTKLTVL land among the classes by reported Trimeric HA Binding RLU?
class 2

Hey, which category is TCN-557 (5081_A04) (antibody, V domains shown) VH: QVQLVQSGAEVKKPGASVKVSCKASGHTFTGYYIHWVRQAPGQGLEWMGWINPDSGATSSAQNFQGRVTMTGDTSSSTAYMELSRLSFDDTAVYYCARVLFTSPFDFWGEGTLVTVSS VL: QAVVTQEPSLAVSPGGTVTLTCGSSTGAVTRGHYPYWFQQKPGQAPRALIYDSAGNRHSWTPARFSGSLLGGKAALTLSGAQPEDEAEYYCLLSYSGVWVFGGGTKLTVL in, do you know?
class 2
